TEST_TARGET: PDE8A1 (Homo sapiens)
Construct: Scottish Biomedical (contract laboratory)
Sequence (O60658 whole entry, species assumed): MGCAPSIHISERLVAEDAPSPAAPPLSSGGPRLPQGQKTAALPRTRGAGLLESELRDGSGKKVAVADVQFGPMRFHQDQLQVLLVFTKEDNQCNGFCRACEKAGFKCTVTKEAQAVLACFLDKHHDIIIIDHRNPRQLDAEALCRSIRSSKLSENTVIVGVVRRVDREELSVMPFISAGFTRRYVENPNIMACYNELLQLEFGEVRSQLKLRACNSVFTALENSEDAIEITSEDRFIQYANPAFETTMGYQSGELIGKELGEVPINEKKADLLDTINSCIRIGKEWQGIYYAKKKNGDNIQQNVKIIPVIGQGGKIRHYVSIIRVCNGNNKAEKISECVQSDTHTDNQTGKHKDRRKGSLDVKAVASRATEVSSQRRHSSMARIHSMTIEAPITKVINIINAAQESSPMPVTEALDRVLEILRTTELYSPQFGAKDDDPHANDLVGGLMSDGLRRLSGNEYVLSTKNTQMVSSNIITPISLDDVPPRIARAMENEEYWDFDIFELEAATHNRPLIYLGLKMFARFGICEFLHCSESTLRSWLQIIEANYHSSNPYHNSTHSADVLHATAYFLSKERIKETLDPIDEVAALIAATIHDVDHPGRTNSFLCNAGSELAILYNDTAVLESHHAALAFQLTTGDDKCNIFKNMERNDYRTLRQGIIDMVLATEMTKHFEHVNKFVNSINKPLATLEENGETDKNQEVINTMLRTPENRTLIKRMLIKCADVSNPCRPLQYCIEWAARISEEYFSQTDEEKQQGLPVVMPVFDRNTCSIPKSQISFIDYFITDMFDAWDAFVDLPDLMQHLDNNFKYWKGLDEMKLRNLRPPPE
ASSAY_SUMMARY: IMAP PDE activity assay (Scottish Biomedical)
Assay type: biochemical
RUN_PARAMETERS: NI, no inhibition noted at concentrations tested (up to 10 µM at Cerep and up to 100 µM at Scottish Biomedical)
Method: Studies were conducted at Scottish Biomedical (Scotland, UK) Activity against recombinant PDEs (Table 1) was evaluated using the IMAP technology, which is based on high affinity binding of phosphate by immobilized metal coordination complexes on nanoparticles. The binding reagent complexes with phosphate groups on nucleotide monophosphate generated from cyclic nucleotides (cAMP/cGMP) through PDE activity. […]
pIC50: −log10 of the molar value.
READOUT_NAME: pIC50

What does the data say about its pIC50? Entry: CN1C(=O)c2nc(Cc3ccc(C(F)(F)F)cc3)[nH]c2N2C1=N[C@H]1CCC[C@H]12 [SCH-51866] < 4.00

====

Tested on: PDE3 Cat
ASSAY_SUMMARY: IMAP PDE activity assay (Scottish Biomedical)
Assay type: biochemical
RUN_PARAMETERS: * Extrapolated value
READOUT_NAME: pIC50
Keep it numeric: pIC50 is minus log10 of the concentration in mol/L.

What does the data say about its pIC50? Entry: CN1C(=O)c2nc(Cc3ccc(C(F)(F)F)cc3)[nH]c2N2C1=N[C@H]1CCC[C@H]12 4.76

====

ASSAY_SUMMARY: Pharmacokinetic analysis in mice
Assay type: in vivo, mouse
RUN_PARAMETERS: male, C57BL/6NCRL, mouse, 5 mg/kg; Plasma; IV 5.0 (mg eq./kg); read-out: Half-life (t1/2) (converted)
READOUT_NAME: half-life (h)
Please respond with the number in h and leave the unit unwritten.

What does the data say about its half-life? Entry: CN1C(=O)c2nc(Cc3ccc(C(F)(F)F)cc3)[nH]c2N2C1=N[C@H]1CCC[C@H]12 3.87

====

ASSAY_SUMMARY: Pharmacokinetic analysis in mice
Type: in vivo, mouse
RUN_PARAMETERS: male, C57BL/6NCRL, mouse, 5 mg/kg; Brain; IV 5.0 (mg eq./kg); read-out: Half-life (t1/2) (converted)
READOUT_NAME: half-life

What does the data say about its half-life? Entry: CN1C(=O)c2nc(Cc3ccc(C(F)(F)F)cc3)[nH]c2N2C1=N[C@H]1CCC[C@H]12 1.08 h

====

ASSAY_SUMMARY: Pharmacokinetic analysis in mice
Assay type: in vivo, mouse
RUN_PARAMETERS: male, C57BL/6NCRL, mouse, 5 mg/kg; Plasma; IV 5.0 (mg eq./kg); read-out: Volume of Distribution at Steady State (Vdss)
READOUT_NAME: Vd (L/kg)
Please respond with the number in L/kg and leave the unit unwritten.

What does the data say about its Vd? Entry: CN1C(=O)c2nc(Cc3ccc(C(F)(F)F)cc3)[nH]c2N2C1=N[C@H]1CCC[C@H]12 4.48

====

TEST_TARGET: PDE9A2 (Homo sapiens, UniProt O76083)
Sequence (O76083 whole entry): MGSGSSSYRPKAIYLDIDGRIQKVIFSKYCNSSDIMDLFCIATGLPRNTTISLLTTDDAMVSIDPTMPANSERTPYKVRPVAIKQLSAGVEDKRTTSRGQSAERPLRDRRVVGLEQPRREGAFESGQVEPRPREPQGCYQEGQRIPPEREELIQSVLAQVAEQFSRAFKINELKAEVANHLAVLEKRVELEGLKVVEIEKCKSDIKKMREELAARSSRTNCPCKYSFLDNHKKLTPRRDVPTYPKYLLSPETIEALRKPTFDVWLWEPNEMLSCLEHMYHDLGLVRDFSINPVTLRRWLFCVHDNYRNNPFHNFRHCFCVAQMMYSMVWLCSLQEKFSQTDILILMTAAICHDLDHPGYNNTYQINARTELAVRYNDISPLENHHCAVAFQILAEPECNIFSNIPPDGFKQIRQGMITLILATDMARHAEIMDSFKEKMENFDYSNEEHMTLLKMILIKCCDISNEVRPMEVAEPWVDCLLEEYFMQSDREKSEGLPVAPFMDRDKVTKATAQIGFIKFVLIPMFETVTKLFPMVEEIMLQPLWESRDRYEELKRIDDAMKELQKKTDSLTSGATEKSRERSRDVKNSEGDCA
READOUT_NAME: pIC50
Keep it numeric: pIC50 is minus log10 of the concentration in mol/L.

What does the data say about its pIC50? Entry: CN1C(=O)c2nc(Cc3ccc(C(F)(F)F)cc3)[nH]c2N2C1=N[C@H]1CCC[C@H]12 [SCH-51866] 4.29

Origin of the recorded values: paper PMC3923778
